B1: FBF1 (parent)
chain: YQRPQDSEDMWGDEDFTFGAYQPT

# Variants of: B1
# Method Description: protein stability index of a GFP-peptide fusion (GPS, HEK-293T) (PSI 1-6); higher = more stable;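 note: lentivirally expressed fusions sorted by FACS into six bins by GFP to DsRed ratio, PSI derived from sequencing read proportions per bin multiplied by bin number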
# Reported Conditions: c terminus: a fixed tail appended
For each entry below, report its protein stability index value.
The answer should be a number; do not append a unit.

Q: Which protein stability index is reported for this variant? YQRPQDSEDMWGDEDFTFGWYQPT [A20W]
Ans: 2.04

Q: Which protein stability index is reported for this variant? YQRPDDSEDMWGDEDFTFGAYQPT [Q5D]
Ans: 3.79

Q: Which protein stability index is reported for this variant? YQRPQDSEDVWGDEDFTFGAYQPT [M10V]
Ans: 2.75

Q: Which protein stability index is reported for this variant? YQRPQKSEDMWGDEDFTFGAYQPT [D6K]
Ans: 1.94

Q: Which protein stability index is reported for this variant? YQRPQDSEDMWGDEDFEFGAYQPT [T17E]
Ans: 3.04

Q: Which protein stability index is reported for this variant? YQRPQDSEDMWRDEDFTFGAYQPT [G12R]
Ans: 2.96

Q: Which protein stability index is reported for this variant? TQRPQDSEDMWGDEDFTFGAYQPT [Y1T]
Ans: 4.66

Q: Which protein stability index is reported for this variant? YQRAQDSEDMWGDEDFTFGAYQPT [P4A]
Ans: 2.45

Q: Which protein stability index is reported for this variant? YLRPQDSEDMWGDEDFTFGAYQPT [Q2L]
Ans: 3.45

Q: Which protein stability index is reported for this variant? YQRPQDSEDMWGDEDFTSGAYQPT [F18S]
Ans: 3.98

Q: Which protein stability index is reported for this variant? YQRPQDSEDMWGDECFTFGAYQPT [D15C]
Ans: 1.77

Q: Which protein stability index is reported for this variant? YQRPQDSEDMWGDEDFTFGAYQPV [T24V]
Ans: 2.63

Q: Which protein stability index is reported for this variant? YQRPQDSEDMWGDEDFTYGAYQPT [F18Y]
Ans: 3.02

Q: Which protein stability index is reported for this variant? YQRPQDSEDMWGDEDITFGAYQPT [F16I]
Ans: 3.14

Q: Which protein stability index is reported for this variant? YQRPQDHEDMWGDEDFTFGAYQPT [S7H]
Ans: 2.58

Q: Which protein stability index is reported for this variant? YQKPQDSEDMWGDEDFTFGAYQPT [R3K]
Ans: 3.64

Q: Which protein stability index is reported for this variant? YQRPQDSEDMWGDEDFRFGAYQPT [T17R]
Ans: 2.68

Q: Which protein stability index is reported for this variant? YQRPQDSEDMPGDEDFTFGAYQPT [W11P]
Ans: 4.87

Q: Which protein stability index is reported for this variant? YQRPQDSEDWWGDEDFTFGAYQPT [M10W]
Ans: 2.81

Q: Which protein stability index is reported for this variant? YQRPQDSEDMWGDEWFTFGAYQPT [D15W]
Ans: 1.78

Q: Which protein stability index is reported for this variant? YWRPQDSEDMWGDEDFTFGAYQPT [Q2W]
Ans: 2.38

Q: Which protein stability index is reported for this variant? YQRFQDSEDMWGDEDFTFGAYQPT [P4F]
Ans: 2.54

Q: Which protein stability index is reported for this variant? YQRPQDSEDMWGDEDFTFGAYQPF [T24F]
Ans: 2.29

Q: Which protein stability index is reported for this variant? YQRPQDSEDMWGDEDFHFGAYQPT [T17H]
Ans: 2.86

Q: Which protein stability index is reported for this variant? YQRPQDSEDMWGDEDFTFGAYEPT [Q22E]
Ans: 3.19

Q: Which protein stability index is reported for this variant? YQRPQDSEDMWGDEDFTFGAVQPT [Y21V]
Ans: 2.92

Q: Which protein stability index is reported for this variant? YQRPQDSEDMWGDEDFTFLAYQPT [G19L]
Ans: 2.33

Q: Which protein stability index is reported for this variant? YQRPQDSEDMWGDEDFTFGAYQPM [T24M]
Ans: 2.52

Q: Which protein stability index is reported for this variant? YQRPQDSEDMWGDEDFTFGAYQWT [P23W]
Ans: 2.19

Q: Which protein stability index is reported for this variant? YQRPQDSEDMWPDEDFTFGAYQPT [G12P]
Ans: 3.79

Q: Which protein stability index is reported for this variant? YQRMQDSEDMWGDEDFTFGAYQPT [P4M]
Ans: 2.74

Q: Which protein stability index is reported for this variant? YQRPQDSEDMWGDEDFTFGAYQPE [T24E]
Ans: 2.58

Q: Which protein stability index is reported for this variant? YQRPQDSEDMWGDEDFTFGNYQPT [A20N]
Ans: 2.9

Q: Which protein stability index is reported for this variant? YQRPQDSEDMWGDHDFTFGAYQPT [E14H]
Ans: 2.84

Q: Which protein stability index is reported for this variant? YQRPQASEDMWGDEDFTFGAYQPT [D6A]
Ans: 2.05

Q: Which protein stability index is reported for this variant? YQRPQDSEDMWGDEDFTFGAYWPT [Q22W]
Ans: 1.94

Q: Which protein stability index is reported for this variant? YQRPQDSEDMWGDLDFTFGAYQPT [E14L]
Ans: 1.66

Q: Which protein stability index is reported for this variant? YQSPQDSEDMWGDEDFTFGAYQPT [R3S]
Ans: 3.11

Q: Which protein stability index is reported for this variant? YQRPQDSEDMWGDEDFTFGAYQRT [P23R]
Ans: 2.67

Q: Which protein stability index is reported for this variant? YQRPQDSEDMWGDEDFTGGAYQPT [F18G]
Ans: 3.6

Q: Which protein stability index is reported for this variant? YQRPQDSEDMWGDEDFTFGACQPT [Y21C]
Ans: 3.17

Q: Which protein stability index is reported for this variant? YQRPQDSEDMWSDEDFTFGAYQPT [G12S]
Ans: 3.13

Q: Which protein stability index is reported for this variant? YQRPQDSEDMWGDEDFTFGAQQPT [Y21Q]
Ans: 3.39

Q: Which protein stability index is reported for this variant? MQRPQDSEDMWGDEDFTFGAYQPT [Y1M]
Ans: 4.6

Q: Which protein stability index is reported for this variant? YQRPQDSEDMWGDEDFTFGAYQAT [P23A]
Ans: 2.47

Q: Which protein stability index is reported for this variant? YTRPQDSEDMWGDEDFTFGAYQPT [Q2T]
Ans: 3.54
